- TARGET_UNDER_TEST: human CRTH2 receptor (Homo sapiens, UniProt Q9Y5Y4)
- Construct: membranes prepared in house from the purchased cell line
- Sequence (Q9Y5Y4 whole entry): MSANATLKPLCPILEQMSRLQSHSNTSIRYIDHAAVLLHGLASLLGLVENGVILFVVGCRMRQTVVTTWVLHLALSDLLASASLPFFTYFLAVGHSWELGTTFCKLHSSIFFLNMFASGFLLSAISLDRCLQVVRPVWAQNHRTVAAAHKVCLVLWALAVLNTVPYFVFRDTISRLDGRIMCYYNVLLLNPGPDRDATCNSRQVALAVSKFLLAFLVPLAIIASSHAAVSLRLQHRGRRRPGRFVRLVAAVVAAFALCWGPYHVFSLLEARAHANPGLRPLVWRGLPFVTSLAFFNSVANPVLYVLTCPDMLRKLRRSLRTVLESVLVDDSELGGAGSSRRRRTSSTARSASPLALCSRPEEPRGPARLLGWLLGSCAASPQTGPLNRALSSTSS
- TEST_NAME: Human CRTH2 receptor membrane radioligand binding assay (SPA, [3H]-PGD2)
- TEST_CONDITIONS: displacement of [3H]-PGD2 (1 nM) from CHO-K1-hCRTH2 cell membranes, 3 h room temperature
RECORDED_METRIC: Ki (nM)

Worked set:
{"columns": ["COMPOUND", "TARGET_UNDER_TEST", "RECORDED_RESULT"],
 "data": [
  ["Cc1cc(C(F)(F)F)ccc1C(=O)Nc1ccc(Cn2nc(C)c(CC(=O)O)c2C)cc1", "human CRTH2 receptor (Homo sapiens, UniProt Q9Y5Y4)", 2.7],
  ["CCc1nn(Cc2ccc([S+]([O-])Cc3ccc(Cl)c(Cl)c3)cc2)c(CC)c1CC(=O)O (stereo not shown)", "human CRTH2 receptor (Homo sapiens, UniProt Q9Y5Y4)", 12.2]
]}

1 = Cc1ccc(C(=O)Nc2ccc(Cn3nc(C)c(CC(=O)O)c3C)cc2)c(C(F)(F)F)c1
2 = Cc1nn(Cc2ccc(C[S+]([O-])c3ccc(Cl)c(Cl)c3)cc2)c(C)c1CC(=O)O (stereo not shown)
3 = CCc1nn(Cc2ccc(C(=O)NCc3ccc(Cl)c(C(F)(F)F)c3)cc2)c(CC)c1CC(=O)O
4 = Cc1nn(Cc2ccc(NC(=O)C3[C@H]4C[C@@H]5C[C@@H](C[C@H]3C5)C4)cc2)c(C)c1CC(=O)O (stereo partly shown)
5 = Cc1cc(Cl)ccc1C(=O)Nc1ccc(Cn2nc(C)c(CC(=O)O)c2C)cc1
Input: Reorder: Ki, max to min. Form entry: labels listed in requested order.
Output: 2, 1, 3, 5, 4

Entry source: patent US20140148484A1
